TARGET_UNDER_TEST: GDP-loaded KRAS (1-169) G12C, C51S, C80L, C118S (Homo sapiens, UniProt P01116, C118S/C51S/C80L/G12C)
Construct: GDP-loaded KRAS (1-169) G12C, C51S, C80L, C118S
TEST_METHOD_NOTES: Mass Spectrometry Reactivity Assay (MSRA): covalent adduct of compound and KRAS G12C, Percent Modification
Type: binding
CONDITION_CONTEXT: 10 μM compound, 0.50 hr
OBSERVATION_TYPE: MSRA (% modification) 10 μM 0.50 hr (%)

Example compounds with recorded MSRA (% modification) 10 μM 0.50 hr:
COMPOUND	UNIT_STRING	MSRA (% modification) 10 μM 0.50 hr
C=CC(=O)N1CCN(c2ncnc3c(Oc4c(Br)ccc5[nH]ncc45)nccc23)CC1 [Example 15C]	%	12
C=CC(=O)N1CCN(c2nc(N(C)CCC(=O)NC)nc3c(Oc4c(C)ccc5[nH]ncc45)cccc23)CC1 [Example 14F]	%	12
C=CC(=O)N1CCN(c2nc(OC)nc3c(Oc4c(C)ccc5[nH]ncc45)nccc23)CC1 [Example 01B]	%	12
C=CC(=O)N1CCN(c2ncnc3c(Oc4c(F)ccc5[nH]ncc45)nccc23)CC1 [Example 08A]	%	6
C=CC(=O)N1CCN(c2ncnc3c(Oc4c(Cl)ccc5[nH]ncc45)nc(C(F)(F)F)cc23)CC1 [Example 04A]	%	40

P. C=CC(=O)N1CCN(c2nc(OC[C@H]3CCCN3C)nc3c(Oc4c(C)ccc5[nH]ncc45)cccc23)CC1 [Example 06E]
Q. C=CC(=O)N1CCN(c2ncnc3c(Oc4c(C)c(Cl)cc5[nH]ncc45)nccc23)C[C@H]1C [Example 24A]
Ask: Just curious, which one has the larger MSRA (% modification) 10 μM 0.50 hr reading, P or Q ? State the label of the item chosen.
Reply: P

====

TARGET_UNDER_TEST: GDP-loaded KRAS (1-169) G12C, C51S, C80L, C118S (Homo sapiens, UniProt P01116, C118S/C51S/C80L/G12C)
Construct: GDP-loaded KRAS (1-169) G12C, C51S, C80L, C118S
TEST_METHOD_NOTES: Mass Spectrometry Reactivity Assay (MSRA): covalent adduct of compound and KRAS G12C, Percent Modification
Assay type: binding
CONDITION_CONTEXT: 10 μM compound, 0.25 hr
OBSERVATION_TYPE: MSRA (% modification) 10 μM 0.25 hr (%)

Example compounds with recorded MSRA (% modification) 10 μM 0.25 hr:
COMPOUND	MSRA (% modification) 10 μM 0.25 hr, %
C=CC(=O)N1CCN(c2nc(OC[C@@H]3C[C@H](OC)CN3C)nc3c(Oc4c(Cl)c(F)cc5[nH]ncc45)nc(Cl)cc23)CC1 [Example 20G]	79
C=CC(=O)N1CCN(c2nc(OCc3cccnc3)nc3c(Oc4c(Cl)c(F)cc5[nH]ncc45)nccc23)CC1 [Example 07H]	77
C=CC(=O)N1CCN(c2nc(OC[C@@H]3CCCN3C)nc3c(Oc4c(Cl)c(C)cc5[nH]ncc45)nccc23)CC1 [Example 09H]	81
C=CC(=O)N1CCN(c2nc(OC[C@H]3CCCO3)nc3c(Oc4c(Cl)c(F)cc5[nH]ncc45)nccc23)CC1 [Example 06H]	60
C=CC(=O)N1CCN(c2nc(OC[C@@H]3CCCN3C)nc3c(Oc4c(Cl)c(F)cc5[nH]ncc45)nc(Cl)cc23)CC1 [Example 01G]	82
C=CC(=O)N1CCN(c2nc(OC[C@@H]3CCC(=O)N3)nc3c(Oc4c(C)ccc5[nH]ncc45)cccc23)CC1 [Example 11F]	34

I. C=CC(=O)N1CCN(c2nc(OCCNC(C)=O)nc3c(Oc4c(C)ccc5[nH]ncc45)cccc23)CC1 [Example 17F]
II. C=CC(=O)N1CCN(c2nc(OC[C@@H]3CCN(C)C3)nc3c(Oc4c(C)ccc5[nH]ncc45)nccc23)CC1 [Example 10B]
Ask: Just curious, which one has the larger MSRA (% modification) 10 μM 0.25 hr reading, I or II ? State the label of the item chosen.
Reply: II
